- Tested on: 782815-120-R-J1-PDC complex spheroid viability
- protocol_summary: Anticancer human tumor 782815-120-R-J1-PDC patient-derived colon adenocarcinoma cell line growth inhibition [RAS]
- reported_conditions: second compound 1 µM; first compound 0.00949 µM; stronger effect = lower value
outcome_measure: viability, T/C (%)

{"compound": "CC1(C)CCC(Nc2ncc(C(F)(F)F)c(-c3c[nH]c4c(P(C)(C)=O)c(C#N)ccc34)n2)CN1 (centres undefined) + C=CC(=O)N1CCN(c2nc(OCC3CCCN3C)nc3c(F)c(-c4nc(N)cc(C)c4C(F)(F)F)c(Cl)cc23)C(C)C1", "experimental_target": "782815-120-R-J1-PDC complex spheroid viability", "recorded_number": 85.8}
{"compound": "CC1(C)CCC(Nc2ncc(C(F)(F)F)c(-c3c[nH]c4c(P(C)(C)=O)c(C#N)ccc34)n2)CN1 (centres undefined) + C#Cc1c(F)ccc2cc(O)cc(-c3ncc4c(N5CC6CCC(C5)N6)nc(OCC56CCCN5CC(F)C6)nc4c3F)c12", "experimental_target": "782815-120-R-J1-PDC complex spheroid viability", "recorded_number": 74.7}
{"compound": "CCc1c2c(nc3ccc(O)cc13)-c1cc3c(c(=O)n1C2)COC(=O)[C@]3(O)CC + C#Cc1c(F)ccc2cc(O)cc(-c3ncc4c(N5CC6CCC(C5)N6)nc(OCC56CCCN5CC(F)C6)nc4c3F)c12", "experimental_target": "782815-120-R-J1-PDC complex spheroid viability", "recorded_number": 23.6}
{"compound": "CCc1c2c(nc3ccc(O)cc13)-c1cc3c(c(=O)n1C2)COC(=O)[C@]3(O)CC + C=CC(=O)N1CCN(c2nc(OCC3CCCN3C)nc3c(F)c(-c4nc(N)cc(C)c4C(F)(F)F)c(Cl)cc23)C(C)C1", "experimental_target": "782815-120-R-J1-PDC complex spheroid viability", "recorded_number": 19.3}

----------
- Test system: 782815-120-R-J1-PDC complex spheroid viability
- protocol_summary: Anticancer human tumor 782815-120-R-J1-PDC cell line growth inhibition [RAS]
- reported_conditions: second compound 0.00949 µM; first compound 0.003 µM; stronger effect = lower value

{"compound": "CC1(C)CCC(Nc2ncc(C(F)(F)F)c(-c3c[nH]c4c(P(C)(C)=O)c(C#N)ccc34)n2)CN1 (centres undefined) + CCn1c(-c2cc(N3CCN(C)CC3)cnc2C(C)OC)c2c3cc(ccc31)-c1csc(n1)CC(NC(=O)C1CC1C)C(=O)N1CCCC(N1)C(=O)OCC(C)(C)C2", "viability, T/C / %": 30.4}
{"compound": "CC1(C)CCC(Nc2ncc(C(F)(F)F)c(-c3c[nH]c4c(P(C)(C)=O)c(C#N)ccc34)n2)CN1 (centres undefined) + CCn1c(-c2cccnc2C(C)OC)c2c3cc(ccc31)N1CCOC(CC(NC(=O)C(C(C)C)N(C)C(=O)C3(F)CCN(C(=O)C#CC(C)(C)N(C)C)CC3)C(=O)N3CCCC(N3)C(=O)OCC(C)(C)C2)C1", "viability, T/C / %": 93.7}
{"compound": "CCc1c2c(nc3ccc(O)cc13)-c1cc3c(c(=O)n1C2)COC(=O)[C@]3(O)CC + CCn1c(-c2cc(N3CCN(C)CC3)cnc2C(C)OC)c2c3cc(ccc31)-c1csc(n1)CC(NC(=O)C1CC1C)C(=O)N1CCCC(N1)C(=O)OCC(C)(C)C2", "viability, T/C / %": 28.5}
{"compound": "CCc1c2c(nc3ccc(O)cc13)-c1cc3c(c(=O)n1C2)COC(=O)[C@]3(O)CC + CCn1c(-c2cccnc2C(C)OC)c2c3cc(ccc31)N1CCOC(CC(NC(=O)C(C(C)C)N(C)C(=O)C3(F)CCN(C(=O)C#CC(C)(C)N(C)C)CC3)C(=O)N3CCCC(N3)C(=O)OCC(C)(C)C2)C1", "viability, T/C / %": 59.2}

----------
- System: 782815-120-R-J1-PDC complex spheroid viability
- protocol_summary: Anticancer human tumor 782815-120-R-J1-PDC cell line growth inhibition [RAS];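 further: spheroids exposed to compounds for 7 days before reading; 100% = DMSO vehicle control viability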
- reported_conditions: second compound 0.03 µM; first compound 0.3 µM; stronger effect = lower value
outcome_measure: viability, T/C (%)

{"compound": "CC1(C)CCC(Nc2ncc(C(F)(F)F)c(-c3c[nH]c4c(P(C)(C)=O)c(C#N)ccc34)n2)CN1 (centres undefined) + CCn1c(-c2cccnc2C(C)OC)c2c3cc(ccc31)N1CCOC(CC(NC(=O)C(C(C)C)N(C)C(=O)C3(F)CCN(C(=O)C#CC(C)(C)N(C)C)CC3)C(=O)N3CCCC(N3)C(=O)OCC(C)(C)C2)C1", "outcome_measure": "viability, T/C", "recorded_number": 47.6}
{"compound": "CCc1c2c(nc3ccc(O)cc13)-c1cc3c(c(=O)n1C2)COC(=O)[C@]3(O)CC + CCn1c(-c2cccnc2C(C)OC)c2c3cc(ccc31)N1CCOC(CC(NC(=O)C(C(C)C)N(C)C(=O)C3(F)CCN(C(=O)C#CC(C)(C)N(C)C)CC3)C(=O)N3CCCC(N3)C(=O)OCC(C)(C)C2)C1", "outcome_measure": "viability, T/C", "recorded_number": 1.53}
{"compound": "CC1(C)CCC(Nc2ncc(C(F)(F)F)c(-c3c[nH]c4c(P(C)(C)=O)c(C#N)ccc34)n2)CN1 (centres undefined) + CCn1c(-c2cc(N3CCN(C)CC3)cnc2C(C)OC)c2c3cc(ccc31)-c1csc(n1)CC(NC(=O)C1CC1C)C(=O)N1CCCC(N1)C(=O)OCC(C)(C)C2", "outcome_measure": "viability, T/C", "recorded_number": 13.6}
{"compound": "CCc1c2c(nc3ccc(O)cc13)-c1cc3c(c(=O)n1C2)COC(=O)[C@]3(O)CC + CCn1c(-c2cc(N3CCN(C)CC3)cnc2C(C)OC)c2c3cc(ccc31)-c1csc(n1)CC(NC(=O)C1CC1C)C(=O)N1CCCC(N1)C(=O)OCC(C)(C)C2", "outcome_measure": "viability, T/C", "recorded_number": 1.73}

----------
// viability, T/C lookup, one value per entry
- Tested on: 782815-120-R-J1-PDC complex spheroid viability
- protocol_summary: Anticancer human tumor 782815-120-R-J1-PDC cell line growth inhibition [RAS];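 further: spheroids exposed to compounds for 7 days before reading; 100% = DMSO vehicle control viability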
- reported_conditions: second compound 0.003 µM; first compound 0.1 µM; stronger effect = lower value
outcome_measure: viability, T/C

{"compound": "CC1(O)CCCC1n1c(=O)c(C(F)F)cc2cnc(NC3CCN(S(C)(=O)=O)CC3)nc21 (configuration not stated) + CCn1c(-c2cc(N3CCN(C)CC3)cnc2C(C)OC)c2c3cc(ccc31)-c1csc(n1)CC(NC(=O)C1CC1C)C(=O)N1CCCC(N1)C(=O)OCC(C)(C)C2", "result": "45.4%"}
{"compound": "O=C(c1ccc(F)c(F)c1Nc1ccc(I)cc1F)N1CC(O)([C@@H]2CCCCN2)C1 + CCn1c(-c2cccnc2C(C)OC)c2c3cc(ccc31)N1CCOC(CC(NC(=O)C(C(C)C)N(C)C(=O)C3(F)CCN(C(=O)C#CC(C)(C)N(C)C)CC3)C(=O)N3CCCC(N3)C(=O)OCC(C)(C)C2)C1", "result": "39.1%"}

----------
- Tested on: 782815-120-R-J1-PDC complex spheroid viability
- protocol_summary: Anticancer human tumor 782815-120-R-J1-PDC cell line growth inhibition [RAS]; active = viability on the fitted dose curve at most 10% of control; inactive = the rest;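 further: spheroids exposed to compounds for 7 days before reading; 100% = DMSO vehicle control viability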
- reported_conditions: compound 0.03 µM
Labels: class 1 (active), class 0 (inactive)

{"molecule": "CC1(C)CCC(Nc2ncc(C(F)(F)F)c(-c3c[nH]c4c(P(C)(C)=O)c(C#N)ccc34)n2)CN1 (centres undefined)", "category_label": "class 0"}
{"molecule": "CCc1c2c(nc3ccc(O)cc13)-c1cc3c(c(=O)n1C2)COC(=O)[C@]3(O)CC", "category_label": "class 1"}
{"molecule": "CCn1c(-c2cc(N3CCN(C)CC3)cnc2C(C)OC)c2c3cc(ccc31)-c1csc(n1)CC(NC(=O)C1CC1C)C(=O)N1CCCC(N1)C(=O)OCC(C)(C)C2 (centres undefined)", "category_label": "class 0"}
{"molecule": "CCn1c(-c2cccnc2C(C)OC)c2c3cc(ccc31)N1CCOC(CC(NC(=O)C(C(C)C)N(C)C(=O)C3(F)CCN(C(=O)C#CC(C)(C)N(C)C)CC3)C(=O)N3CCCC(N3)C(=O)OCC(C)(C)C2)C1 (centres undefined)", "category_label": "class 0"}

----------
- System: 782815-120-R-J1-PDC complex spheroid viability
- protocol_summary: Anticancer human tumor 782815-120-R-J1-PDC cell line growth inhibition [RAS];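 further: spheroids exposed to compounds for 7 days before reading; 100% = DMSO vehicle control viability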
- reported_conditions: second compound 0.0316 µM; first compound 0.0316 µM; stronger effect = lower value

{"molecule": "C=CC(=O)Nc1cc(Nc2nccc(-c3cn(C)c4ccccc34)n2)c(OC)cc1N(C)CCN(C)C + C=CC(=O)N1CCN(c2nc(OCC3CCCN3C)nc3c(F)c(-c4nc(N)cc(C)c4C(F)(F)F)c(Cl)cc23)C(C)C1", "unit_spec": "%", "viability, T/C": 98.1}
{"molecule": "CC(Nc1ccc2c(c1)OCCn1cc(N3C(=O)OCC3C(F)F)nc1-2)C(N)=O (stereo not given) + C=CC(=O)N1CCN(c2nc(OCC3CCCN3C)nc3c(F)c(-c4nc(N)cc(C)c4C(F)(F)F)c(Cl)cc23)C(C)C1", "unit_spec": "%", "viability, T/C": 93.2}
{"molecule": "CC1(O)CCCC1n1c(=O)c(C(F)F)cc2cnc(NC3CCN(S(C)(=O)=O)CC3)nc21 (stereo not given) + C=CC(=O)N1CCN(c2nc(OCC3CCCN3C)nc3c(F)c(-c4nc(N)cc(C)c4C(F)(F)F)c(Cl)cc23)C(C)C1", "unit_spec": "%", "viability, T/C": 58.7}
{"molecule": "CC(C)n1nc(-c2ccc3oc(N)nc3c2)c2c(N)ncnc21 + C#Cc1c(F)ccc2cc(O)cc(-c3ncc4c(N5CC6CCC(C5)N6)nc(OCC56CCCN5CC(F)C6)nc4c3F)c12", "unit_spec": "%", "viability, T/C": 91.8}
{"molecule": "Cc1nc(N2CCC3(CC2)COC(C)C3N)c(CO)nc1Sc1ccnc(N)c1Cl (stereo not given) + C#Cc1c(F)ccc2cc(O)cc(-c3ncc4c(N5CC6CCC(C5)N6)nc(OCC56CCCN5CC(F)C6)nc4c3F)c12", "unit_spec": "%", "viability, T/C": 94.9}
{"molecule": "CC(C)NCC(C(=O)N1CCN(c2ncnc3c2C(C)CC3O)CC1)c1ccc(Cl)cc1 (stereo not given) + C=CC(=O)N1CCN(c2nc(OCC3CCCN3C)nc3c(F)c(-c4nc(N)cc(C)c4C(F)(F)F)c(Cl)cc23)C(C)C1", "unit_spec": "%", "viability, T/C": 96.2}
{"molecule": "Cc1nc(N2CCC3(CC2)COC(C)C3N)c(CO)nc1Sc1ccnc(N)c1Cl (stereo not given) + C=CC(=O)N1CCN(c2nc(OCC3CCCN3C)nc3c(F)c(-c4nc(N)cc(C)c4C(F)(F)F)c(Cl)cc23)C(C)C1", "unit_spec": "%", "viability, T/C": 101}
{"molecule": "O=C(c1ccc(F)c(F)c1Nc1ccc(I)cc1F)N1CC(O)([C@@H]2CCCCN2)C1 + C=CC(=O)N1CCN(c2nc(OCC3CCCN3C)nc3c(F)c(-c4nc(N)cc(C)c4C(F)(F)F)c(Cl)cc23)C(C)C1", "unit_spec": "%", "viability, T/C": 64.2}
{"molecule": "CCC(CC)c1cc(NC2CCC(N)C2)n2nccc2n1 (stereo not given) + C=CC(=O)N1CCN(c2nc(OCC3CCCN3C)nc3c(F)c(-c4nc(N)cc(C)c4C(F)(F)F)c(Cl)cc23)C(C)C1", "unit_spec": "%", "viability, T/C": 101}
{"molecule": "CC(Nc1ccc2c(c1)OCCn1cc(N3C(=O)OCC3C(F)F)nc1-2)C(N)=O (stereo not given) + C#Cc1c(F)ccc2cc(O)cc(-c3ncc4c(N5CC6CCC(C5)N6)nc(OCC56CCCN5CC(F)C6)nc4c3F)c12", "unit_spec": "%", "viability, T/C": 94.1}
